measuredOn: mouse TAAR1 (Mus musculus (Mouse), UniProt Q923Y8)
Sequence (Q923Y8 whole entry): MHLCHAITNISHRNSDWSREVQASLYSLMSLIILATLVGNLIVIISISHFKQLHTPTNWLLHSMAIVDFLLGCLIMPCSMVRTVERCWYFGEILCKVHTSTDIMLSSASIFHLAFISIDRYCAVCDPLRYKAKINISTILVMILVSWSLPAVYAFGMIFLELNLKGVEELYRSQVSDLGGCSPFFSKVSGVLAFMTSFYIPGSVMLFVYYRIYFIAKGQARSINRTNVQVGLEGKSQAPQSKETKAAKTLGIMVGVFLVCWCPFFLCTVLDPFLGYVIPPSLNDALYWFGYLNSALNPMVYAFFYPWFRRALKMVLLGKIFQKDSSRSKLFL
testDetails: Radioligand binding assay on mouse TAAR1
measurementSetup: read-out: Ki (μM) mouse; mouse TAAR1, membranes of HEK-293 cells, radioligand displacement
Structures can show the parent of a compound that is named as a salt.
Answer each item with its documented Ki.
Supply the numeric figure in µM, leaving out any unit text.

Query: Report measured Ki; entry is O=C(Nc1ccc([C@H]2CNCCO2)cc1)c1cnn(-c2ncc(C(F)(F)F)cn2)c1 [Example 37, hydrochloride]
Result: 0.0615

Query: Item O=C(Nc1ccc([C@H]2CNCCO2)cc1)c1cnn(-c2cc(C(F)(F)F)ccn2)c1 [Example 14, hydrochloride] : provide Ki
Result: 0.0013

Query: Give the reported value of Ki for this record: O=C(Nc1ccc([C@H]2CNCCO2)cc1)c1cnn(-c2cc(C(F)(F)F)ncn2)c1 [Example 44, hydrochloride]
Result: 0.0099

Query: Please supply the value of reported Ki for the item Cc1c(C(=O)Nc2ccc([C@H]3CNCCO3)cc2)cnn1-c1ccc(C#N)cc1 [Example 35, hydrochloride]
Result: 0.0601

Query: Tell me its Ki given N#Cc1cc(Br)ccc1-n1cc(C(=O)Nc2ccc([C@H]3CNCCO3)cc2)cn1 [Example 17, hydrochloride] as the entry.
Result: 0.0021

Query: Return reported Ki. Input compound: Cc1nn(-c2ccc(OC(F)F)cc2)cc1C(=O)Nc1ccc([C@H]2CNCCO2)cc1 [Example 32, hydrochloride]
Result: 0.0008

Query: Given the compound CCOc1cccc(-n2cc(C(=O)Nc3ccc([C@H]4CNCCO4)cc3)cn2)n1 [Example 28, hydrochloride] , write its reported Ki.
Result: 0.0008

Query: Report Ki for O=C(Nc1ccc([C@H]2CNCCO2)cc1)c1cnn(-c2ccc(Cl)cn2)c1 [Example 7, hydrochloride]
Result: 0.0016

Query: Check the records and state Ki for N#Cc1ccc(-n2cc(C(=O)Nc3ccc([C@@H]4CNCCO4)cc3)cn2)c(F)c1 [Example 49, hydrochloride]
Result: 0.0049

Query: Please give the documented Ki of O=C(Nc1ccc([C@H]2CNCCO2)cc1)c1cnn(-c2cc(C3CC3)ncn2)c1 [Example 56, hydrochloride]
Result: 0.0051

Query: Give recorded Ki. O=C(Nc1ccc([C@H]2CNCCO2)cc1)c1cnn(-c2cnc(Cl)cn2)c1 [Example 46, hydrochloride]
Result: 0.0031

Query: Give me measured Ki, please, for this compound: O=C(Nc1ccc([C@H]2CNCCO2)cc1)c1cnn(-c2ccnc(Cl)c2)c1 [Example 20, hydrochloride]
Result: 0.0041

Query: Using known records, supply Ki for O=C(Nc1ccc([C@H]2CNCCO2)cc1)c1cnn(-c2nccc(C(F)(F)F)n2)c1 [Example 48, hydrochloride]
Result: 0.0531

Query: Return reported Ki. Input compound: Nc1c(C(=O)Nc2ccc([C@H]3CNCCO3)cc2)cnn1-c1ccc(F)cc1 [Example 2, dihydrochloride]
Result: 0.0144

Query: Dear colleague, please send me the reported Ki for O=C(Nc1ccc([C@@H]2CNCCO2)cc1)c1cnn(-c2ccc(F)cc2)c1 [Example 12, hydrochloride] when you can.
Result: 0.0012

Query: Complete the entry with Ki for Cc1c(C(=O)Nc2ccc([C@H]3CNCCO3)cc2)cnn1-c1ccccc1 [Example 1, hydrochloride]
Result: 0.0086

Query: Recall and state the measured Ki for O=C(Nc1ccc([C@H]2CNCCO2)cc1)c1cnn(-c2ncc(Cl)cn2)c1 [Example 30, hydrochloride] .
Result: 0.0166

The reported numbers originate from patent US9487501B2.
